Source listed as ChEMBL document CHEMBL4513216.

Parameter: cytotoxicity at 10 µM. Scope: all listed entries.
assay: Toxicity liver stage against HepG2, at 10uM; type: cell-based; design: test concentration 10 uM, cell line HepG2-A16-CD81EGFP; conditions: human, HepG2-A16-CD81EGFP cells; read-out: INHIBITION
MEASUREMENT TYPE: cytotoxicity at 10 µM (%)

- COMPOUND: "COc1nc2c(cc1C(=O)NC(C)Cc1cnccn1)CCC2 (stereo unspecified)"
  MEASUREMENT TYPE: "cytotoxicity at 10 µM"
  UNIT SYMBOL: "%"
  TEST VALUE: -135
- COMPOUND: "COCCN1CCCC2(CCN(c3nccnc3N(C)C)C2)C1=O (stereo unspecified)"
  MEASUREMENT TYPE: "cytotoxicity at 10 µM"
  UNIT SYMBOL: "%"
  TEST VALUE: -0.525
- COMPOUND: "O=C(CSC1CCc2ccccc2NC1=O)NC1CC1 (stereo unspecified)"
  MEASUREMENT TYPE: "cytotoxicity at 10 µM"
  UNIT SYMBOL: "%"
  TEST VALUE: 6.58
- COMPOUND: "CN(C(=O)c1cccc(C#N)c1)c1nnc(C2CCOC2)s1 (stereo unspecified)"
  MEASUREMENT TYPE: "cytotoxicity at 10 µM"
  UNIT SYMBOL: "%"
  TEST VALUE: 5.96
- COMPOUND: "CC(CCc1ccccc1)N1CCC(C(=O)Nc2ccccn2)CC1 (stereo unspecified)"
  MEASUREMENT TYPE: "cytotoxicity at 10 µM"
  UNIT SYMBOL: "%"
  TEST VALUE: 13.5
- COMPOUND: "Cc1ncccc1CNCC1CCN(CC(C)O)CC1 (stereo unspecified)"
  MEASUREMENT TYPE: "cytotoxicity at 10 µM"
  UNIT SYMBOL: "%"
  TEST VALUE: -5.59
